assay-target: Fibroblast growth factor receptor 3 (Homo sapiens, UniProt P22607)
Sequence (P22607 whole entry): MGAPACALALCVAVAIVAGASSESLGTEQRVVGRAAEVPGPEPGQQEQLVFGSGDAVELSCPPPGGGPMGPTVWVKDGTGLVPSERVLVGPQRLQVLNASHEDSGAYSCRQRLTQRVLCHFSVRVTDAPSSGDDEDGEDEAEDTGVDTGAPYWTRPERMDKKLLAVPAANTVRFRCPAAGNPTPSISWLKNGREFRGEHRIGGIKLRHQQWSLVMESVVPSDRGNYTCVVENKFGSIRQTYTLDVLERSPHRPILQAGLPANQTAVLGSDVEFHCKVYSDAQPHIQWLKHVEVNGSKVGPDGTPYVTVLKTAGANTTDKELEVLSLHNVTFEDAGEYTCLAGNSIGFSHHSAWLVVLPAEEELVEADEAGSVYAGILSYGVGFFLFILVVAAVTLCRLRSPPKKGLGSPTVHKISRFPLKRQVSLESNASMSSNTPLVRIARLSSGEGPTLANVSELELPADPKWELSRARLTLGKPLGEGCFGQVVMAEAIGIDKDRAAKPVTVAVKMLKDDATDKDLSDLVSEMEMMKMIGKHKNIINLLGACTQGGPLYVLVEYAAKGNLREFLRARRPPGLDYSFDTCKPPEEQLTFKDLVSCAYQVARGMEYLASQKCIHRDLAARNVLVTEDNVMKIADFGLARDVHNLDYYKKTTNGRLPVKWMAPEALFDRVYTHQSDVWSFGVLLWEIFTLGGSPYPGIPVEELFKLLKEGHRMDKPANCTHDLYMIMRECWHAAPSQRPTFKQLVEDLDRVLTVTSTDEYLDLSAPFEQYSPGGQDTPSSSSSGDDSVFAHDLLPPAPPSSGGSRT
property-name: IC50 (µM)
Your answer is read as µM, so omit the unit and give the number.

[Q] Look at this compound and give its reported IC50. CCOC(=O)C1=C2C(=NC1=O)c1cccc3cccc2c13
[A] 4.6

----------
Test system: BXPC-3
test-protocol: Antiproliferative activity against human BxPC3 cells expressing FGFR after 72 hrs by SRB assay
Type: functional, cell-based
condition: BXPC-3, 72 h
property-name: pIC50
Reminder that pIC50 means the negative base-10 logarithm of the concentration expressed in mol/L.

[Q] Look at this molecule and give its reported pIC50. CCOC(=O)C1=C2C(=NC1=O)c1cccc3cccc2c13
[A] 5.33

----------
System: WI-38
test-protocol: Antiproliferative activity against human WI38 cells expressing FGFR after 72 hrs by SRB assay
Format: cell-based
condition: WI-38, 72 h
Items are presented alongside their recorded pIC50.
Reminder that pIC50 means the negative base-10 logarithm of the concentration expressed in mol/L.

C=CCOC(=O)C1=C2C(=NC1=O)c1cccc3cccc2c13	4.69
O=C(COC(=O)C1=C2C(=NC1=O)c1cccc3cccc2c13)OCC(F)(F)C(F)(F)F	4.32
CCCSc1ccc2c3c(cccc13)C1=NC(=O)C(C(=O)OCC)=C12	5.02
C=CCSc1ccc2c3c(cccc13)C1=NC(=O)C(C(=O)OCC)=C12	5.34
CCCSc1ccc2c3c(cccc13)C1=NC(=O)C(C(=O)OCC(=O)OCC(F)(F)C(F)(F)F)=C12	4.23

[Q] Look at this molecule and give its reported pIC50. C=CCOC(=O)C1=C2C(=NC1=O)c1cccc3c(SCCC)ccc2c13
[A] 4.48

[Q] What about this molecule? CCOC(=O)C1=C2C(=NC1=O)c1cccc3cccc2c13
[A] 5.21

[Q] What about this molecule? C=CCOC(=O)C1=C2C(=NC1=O)c1cccc3c(SCC=C)ccc2c13
[A] 4.71

[Q] What about this molecule? CCCSC(=O)COC(=O)C1=C2C(=NC1=O)c1cccc3cccc2c13
[A] 4.60

[Q] What about this molecule? C=CCSc1ccc2c3c(cccc13)C1=NC(=O)C(C(=O)OCC(=O)OCC(F)(F)C(F)(F)F)=C12
[A] 4.34

[Q] What about this molecule? N#CC1=C2C(=NC1=O)c1cccc3cccc2c13
[A] 4.66

----------
assay-target: UniProt:P07949
Sequence (P07949 whole entry): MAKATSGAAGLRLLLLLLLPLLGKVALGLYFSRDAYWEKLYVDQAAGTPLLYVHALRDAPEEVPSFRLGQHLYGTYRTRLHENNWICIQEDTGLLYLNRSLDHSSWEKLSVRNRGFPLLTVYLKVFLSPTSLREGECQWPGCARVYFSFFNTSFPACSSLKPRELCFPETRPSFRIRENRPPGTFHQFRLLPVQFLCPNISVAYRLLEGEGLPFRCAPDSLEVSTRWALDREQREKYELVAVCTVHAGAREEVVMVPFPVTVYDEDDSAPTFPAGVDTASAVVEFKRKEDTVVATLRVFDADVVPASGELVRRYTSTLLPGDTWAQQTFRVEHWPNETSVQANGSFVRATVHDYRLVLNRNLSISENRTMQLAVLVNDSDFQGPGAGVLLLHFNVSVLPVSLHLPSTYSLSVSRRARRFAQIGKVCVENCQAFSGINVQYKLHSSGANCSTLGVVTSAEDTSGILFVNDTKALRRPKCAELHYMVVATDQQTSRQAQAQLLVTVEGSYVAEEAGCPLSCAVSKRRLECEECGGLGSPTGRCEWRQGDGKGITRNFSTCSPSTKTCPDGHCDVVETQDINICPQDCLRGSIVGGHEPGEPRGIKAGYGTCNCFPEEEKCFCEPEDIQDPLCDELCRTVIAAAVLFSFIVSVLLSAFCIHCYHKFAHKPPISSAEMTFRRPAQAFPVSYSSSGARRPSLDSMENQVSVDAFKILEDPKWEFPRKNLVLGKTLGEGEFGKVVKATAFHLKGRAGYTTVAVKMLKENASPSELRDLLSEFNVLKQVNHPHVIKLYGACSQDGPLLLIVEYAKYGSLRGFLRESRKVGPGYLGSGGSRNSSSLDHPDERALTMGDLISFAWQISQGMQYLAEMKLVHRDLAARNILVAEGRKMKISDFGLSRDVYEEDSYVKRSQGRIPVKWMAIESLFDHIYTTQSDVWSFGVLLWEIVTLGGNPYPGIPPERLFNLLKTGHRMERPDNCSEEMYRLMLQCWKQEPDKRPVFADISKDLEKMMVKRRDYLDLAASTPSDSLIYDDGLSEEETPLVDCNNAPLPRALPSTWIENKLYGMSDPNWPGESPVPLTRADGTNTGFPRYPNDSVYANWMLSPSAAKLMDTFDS
property-name: IC50

[Q] Look at this molecule and give its reported IC50. CCOC(=O)C1=C2C(=NC1=O)c1cccc3cccc2c13
[A] > 10 µM

----------
assay-target: Platelet-derived growth factor receptor alpha (Homo sapiens)
Sequence (P16234 whole entry): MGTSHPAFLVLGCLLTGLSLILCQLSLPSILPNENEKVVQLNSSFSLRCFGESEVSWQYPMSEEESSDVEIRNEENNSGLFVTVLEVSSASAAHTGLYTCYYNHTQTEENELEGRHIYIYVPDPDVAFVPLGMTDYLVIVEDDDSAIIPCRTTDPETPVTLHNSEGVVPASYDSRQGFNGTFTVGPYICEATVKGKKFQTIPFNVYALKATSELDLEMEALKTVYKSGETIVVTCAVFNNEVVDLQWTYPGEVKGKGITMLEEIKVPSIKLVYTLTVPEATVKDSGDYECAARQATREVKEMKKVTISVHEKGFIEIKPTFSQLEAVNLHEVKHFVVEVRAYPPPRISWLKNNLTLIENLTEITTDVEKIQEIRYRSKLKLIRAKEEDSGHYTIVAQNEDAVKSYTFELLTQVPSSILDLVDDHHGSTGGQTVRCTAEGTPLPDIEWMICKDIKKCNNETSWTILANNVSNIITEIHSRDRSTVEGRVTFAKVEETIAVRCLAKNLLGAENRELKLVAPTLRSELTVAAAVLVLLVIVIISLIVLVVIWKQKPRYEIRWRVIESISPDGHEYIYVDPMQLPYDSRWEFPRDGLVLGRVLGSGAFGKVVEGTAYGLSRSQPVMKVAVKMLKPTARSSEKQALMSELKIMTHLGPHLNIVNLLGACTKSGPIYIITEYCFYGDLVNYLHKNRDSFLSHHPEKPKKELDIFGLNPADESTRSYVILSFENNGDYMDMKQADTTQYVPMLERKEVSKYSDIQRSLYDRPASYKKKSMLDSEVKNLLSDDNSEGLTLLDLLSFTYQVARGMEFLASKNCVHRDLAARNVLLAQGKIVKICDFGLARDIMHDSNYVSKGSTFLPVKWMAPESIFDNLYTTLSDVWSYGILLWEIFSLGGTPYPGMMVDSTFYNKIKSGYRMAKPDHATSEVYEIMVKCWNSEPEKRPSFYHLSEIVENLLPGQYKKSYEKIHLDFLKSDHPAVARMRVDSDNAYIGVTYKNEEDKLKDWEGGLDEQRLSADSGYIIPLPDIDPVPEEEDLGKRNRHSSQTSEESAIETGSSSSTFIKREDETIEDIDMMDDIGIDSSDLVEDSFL
test-protocol: Inhibition of PDGFRalpha using poly(Glu-Tyr)4:1 as substrate after 60 mins by ELISA
pIC50: −log10 of the molar value.
property-name: pIC50

[Q] Please state recorded pIC50 (tested on Platelet-derived growth factor receptor alpha (Homo sapiens)) of CCOC(=O)C1=C2C(=NC1=O)c1cccc3cccc2c13
[A] < 5.00

----------
assay-target: Tyrosine-protein kinase ABL1 (Homo sapiens, UniProt P00519)
Sequence (P00519 whole entry): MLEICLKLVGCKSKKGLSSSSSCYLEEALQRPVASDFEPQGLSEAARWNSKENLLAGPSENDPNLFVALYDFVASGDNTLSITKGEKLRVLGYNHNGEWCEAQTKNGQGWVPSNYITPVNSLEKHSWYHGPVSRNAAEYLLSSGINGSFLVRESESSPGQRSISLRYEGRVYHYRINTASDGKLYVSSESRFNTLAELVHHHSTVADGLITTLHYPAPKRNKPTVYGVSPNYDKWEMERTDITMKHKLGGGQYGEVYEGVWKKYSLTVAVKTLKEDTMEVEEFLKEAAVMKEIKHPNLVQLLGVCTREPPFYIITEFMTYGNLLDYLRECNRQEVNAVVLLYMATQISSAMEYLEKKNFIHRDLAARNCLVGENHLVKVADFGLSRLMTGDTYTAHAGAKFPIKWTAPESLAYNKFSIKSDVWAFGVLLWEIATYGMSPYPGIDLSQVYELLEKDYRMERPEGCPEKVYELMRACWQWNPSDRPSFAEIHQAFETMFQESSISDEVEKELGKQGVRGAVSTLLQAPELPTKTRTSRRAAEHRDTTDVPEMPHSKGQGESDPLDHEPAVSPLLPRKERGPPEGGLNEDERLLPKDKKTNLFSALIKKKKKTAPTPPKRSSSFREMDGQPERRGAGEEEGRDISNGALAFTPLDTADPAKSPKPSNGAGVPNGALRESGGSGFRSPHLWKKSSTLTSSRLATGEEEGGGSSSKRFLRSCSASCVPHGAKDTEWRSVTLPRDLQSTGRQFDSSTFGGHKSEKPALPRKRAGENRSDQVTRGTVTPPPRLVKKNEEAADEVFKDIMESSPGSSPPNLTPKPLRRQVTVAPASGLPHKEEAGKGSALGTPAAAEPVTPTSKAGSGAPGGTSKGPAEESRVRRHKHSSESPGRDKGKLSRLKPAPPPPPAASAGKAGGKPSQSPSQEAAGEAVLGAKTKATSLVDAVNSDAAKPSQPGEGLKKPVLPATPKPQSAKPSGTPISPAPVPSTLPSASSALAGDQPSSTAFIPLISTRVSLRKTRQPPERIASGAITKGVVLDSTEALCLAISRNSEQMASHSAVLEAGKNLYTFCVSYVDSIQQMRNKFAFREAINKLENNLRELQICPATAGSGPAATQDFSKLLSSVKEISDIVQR
pIC50: −log10 of the molar value.
property-name: pIC50

[Q] Look at this compound and give its reported pIC50. CCOC(=O)C1=C2C(=NC1=O)c1cccc3cccc2c13
[A] < 5.00

----------
assay-target: UniProt P12931
Sequence (P12931 2-536 limits assumed): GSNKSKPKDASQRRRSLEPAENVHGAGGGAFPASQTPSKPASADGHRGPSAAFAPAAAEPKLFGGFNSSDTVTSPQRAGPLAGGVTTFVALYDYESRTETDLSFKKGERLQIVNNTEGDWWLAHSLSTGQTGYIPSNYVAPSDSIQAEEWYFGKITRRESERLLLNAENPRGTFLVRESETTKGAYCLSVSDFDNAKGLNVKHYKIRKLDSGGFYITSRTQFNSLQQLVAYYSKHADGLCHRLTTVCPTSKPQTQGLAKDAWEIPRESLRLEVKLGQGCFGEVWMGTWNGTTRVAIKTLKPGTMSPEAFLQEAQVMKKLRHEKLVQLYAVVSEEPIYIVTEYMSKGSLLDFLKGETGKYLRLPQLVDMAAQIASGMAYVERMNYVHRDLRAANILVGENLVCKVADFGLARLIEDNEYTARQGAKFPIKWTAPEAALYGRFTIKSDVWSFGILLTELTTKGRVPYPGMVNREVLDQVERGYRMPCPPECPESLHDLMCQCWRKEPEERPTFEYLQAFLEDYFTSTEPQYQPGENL
pIC50: −log10 of the molar value.
property-name: pIC50

[Q] Look at this compound and give its reported pIC50. CCOC(=O)C1=C2C(=NC1=O)c1cccc3cccc2c13
[A] < 5.00

----------
Tested on: T-24
test-protocol: Antiproliferative activity against human T24 cells expressing FGFR after 72 hrs by SRB assay
Type: functional, cell-based
condition: T-24, 72 h
Items are presented alongside their recorded pIC50.
Reminder that pIC50 means the negative base-10 logarithm of the concentration expressed in mol/L.

In the examples that follow, each entry is paired with its recorded pIC50.
C=CCOC(=O)C1=C2C(=NC1=O)c1cccc3c(SCCC)ccc2c13	4.88
N#CC1=C2C(=NC1=O)c1cccc3cccc2c13	4.88
CCCSc1ccc2c3c(cccc13)C1=NC(=O)C(C(=O)OCC)=C12	5.77
C=CCOC(=O)C1=C2C(=NC1=O)c1cccc3cccc2c13	5.41
C=CCSc1ccc2c3c(cccc13)C1=NC(=O)C(C(=O)OCC(=O)OCC(F)(F)C(F)(F)F)=C12	4.06

[Q] Look at this compound and give its reported pIC50. O=C(COC(=O)C1=C2C(=NC1=O)c1cccc3cccc2c13)OCC(F)(F)C(F)(F)F
[A] 4.72

[Q] What about this compound? C=CCSc1ccc2c3c(cccc13)C1=NC(=O)C(C(=O)OCC(=O)SCCC)=C12
[A] 4.14

[Q] What about this compound? CCCSC(=O)COC(=O)C1=C2C(=NC1=O)c1cccc3cccc2c13
[A] 4.98

[Q] What about this compound? C=CCSc1ccc2c3c(cccc13)C1=NC(=O)C(C(=O)OCC)=C12
[A] 6.15

[Q] What about this compound? CCOC(=O)C1=C2C(=NC1=O)c1cccc3cccc2c13
[A] 5.54

[Q] What about this compound? CCCSC(=O)COC(=O)C1=C2C(=NC1=O)c1cccc3c(SCCC)ccc2c13
[A] 4.10

[Q] What about this compound? C=CCOC(=O)C1=C2C(=NC1=O)c1cccc3c(SCC=C)ccc2c13
[A] 5.18

----------
Items are presented alongside their recorded log10(IC50).
System: BXPC-3
test-protocol: Antiproliferative activity against human BxPC3 cells expressing FGFR after 72 hrs by SRB assay
Assay type: functional, cell-based
condition: BXPC-3, 72 h
Hey, these are logged values: log10 of IC50, µM being the unit before logging.

CCCSc1ccc2c3c(cccc13)C1=NC(=O)C(C(=O)OCC)=C12	0.76
C=CCOC(=O)C1=C2C(=NC1=O)c1cccc3c(SCCC)ccc2c13	1.11
CCCSc1ccc2c3c(cccc13)C1=NC(=O)C(C(=O)OCC(=O)OCC(F)(F)C(F)(F)F)=C12	1.73
C=CCSc1ccc2c3c(cccc13)C1=NC(=O)C(C(=O)OCC)=C12	0.40
C=CCOC(=O)C1=C2C(=NC1=O)c1cccc3cccc2c13	0.68
C=CCOC(=O)C1=C2C(=NC1=O)c1cccc3c(SCC=C)ccc2c13	0.40

[Q] Look at this compound and give its reported log10(IC50). CCCSC(=O)COC(=O)C1=C2C(=NC1=O)c1cccc3c(SCCC)ccc2c13
[A] 1.75

[Q] What about this compound? CCCSC(=O)COC(=O)C1=C2C(=NC1=O)c1cccc3cccc2c13
[A] 1.00

[Q] What about this compound? O=C(COC(=O)C1=C2C(=NC1=O)c1cccc3cccc2c13)OCC(F)(F)C(F)(F)F
[A] 1.37
